assay: yeast display, Sf9 membrane polyspecificity reagent, FACS + sequencing; frameworks hold sequencing errors
parameter: polyreactivity (PSR sort gate)

QVQLVESGGGLVQAGGSLRLSCAASGFIFPTYAMGWYRQAPGKERELVATITTNAGGTHYADSVKGRFTISRDNAKNTVYLQMNSLKPEDTAVYYCAAKQYRPKQRKYWTRIYDYWGQGTQVTVSS ... low polyreactivity
QVQLVESGGGLVQAGGSLRLSCAASGSTFDYYAMGWYRPAPGKERELVAGINRDDGNTYYADSVKGRFTISRDNAKNTVYLQMNSLKPEDTAVYYCAADSSWQGMDYSGQGTQVTVSS ... low polyreactivity
QVQLVESGGGLVQAGGSLRLSCAASGSIFLANAMGWYRQAPGKERELVAGISSSVTTNYADSVKGRFTISRDNAKNTVYLQMNSLKPEDTAVYYSNAVYGVYDFNYWVQGTQVTVSS ... low polyreactivity
